Source of measurements: PubChem BioAssay (NCI)

Would you kindly list growth for each of these compounds?
Test system: CCRF-CEM leukemia
assay_procedure: NCI-60 one-dose screen, 48 h (100 = growth as untreated, 0 = no growth, -100 = all killed)
stated_conditions: 10 µM unless noted
Compounds without any hit were thinned out: in the full panel of roughly 83,000, 20% have a hit.
Give bare numbers, in %.

| compound | growth / % |
| --- | --- |
| CC(C)c1ccc2c(N)c(C(=O)Nc3cccc(C(F)(F)F)c3)sc2n1 | 38.9 |

Please report growth for every entry that follows.
1. COc1ccc2cc([C@H](C)C(=O)N/N=C/c3ccc(Br)cc3)ccc2c1
2. C/C(=N\N=C1/C(=O)Nc2ccccc21)c1ccc2c(c1)Nc1ccccc1S2
3. COc1ccc(/C=C/c2nc3ccccc3c(=O)n2CC(=O)Nc2ccc(OC)cc2)cc1
4. COc1c(F)ccc(C(=O)Nc2ccc3nc(NC(=O)C4CCCN(S(=O)(=O)c5ccc(C#N)cc5)C4)sc3c2)c1F (stereo not given)

Data returned:
101
45.8
63.6
92.2

----------
Test system: UO-31 renal
assay_procedure: NCI-60 one-dose screen, 48 h (100 = growth as untreated, 0 = no growth, -100 = all killed)
stated_conditions: 10 µM unless noted
This is part of a sample that, as a whole, favours compounds with a hit. Of some 83,000 tested, about 20% had one in any assay.
property_measured: growth (%)
Numbers only, in %.

Answered cases to consult:
| compound | system | property_measured | readout_number |
| --- | --- | --- | --- |
| Cn1cc(NC(=O)c2cc(NC(=O)c3ccc(C#Cc4ccccc4)cc3)cn2C)cc1C(=O)NCCCN1CCOCC1 | UO-31 renal | growth | 67.8 |
| CC(=O)Oc1ccc(/C=C/C(=O)N[C@@H](Cc2ccccc2)C(O)C(=O)NCc2ccccc2)cc1OC(C)=O (some centres not stated) | UO-31 renal | growth | 38.8 |
| COc1cc2oc(-c3cccc(C(=O)Nc4ccc(Cl)cc4)c3)cc(=O)c2c(OCCNC(=O)[C@@H](N)CCC(=O)O)c1OC | UO-31 renal | growth | 80.1 |
| Cc1ccc(C2CC(c3ccc(S(=O)(=O)NCCNc4nc(Nc5ccc(F)cc5)nc(N(C)C)n4)cc3)=Nc3c(N)nc(N)nc3N2)cc1 (configuration not stated) | UO-31 renal | growth | 67.4 |
| CC(=O)OC[C@@]1(C)C2CC[C@]3(C)C(CC=C4C5CC(C)(C)CC[C@]5(C(=O)Nc5ccc(Br)cc5)CC[C@]43C)[C@@]2(C)C[C@@H](OC(C)=O)[C@@H]1OC(C)=O (some centres not stated) | UO-31 renal | growth | 37.2 |
| OCC1(CCCc2ccccc2)CCCN(c2nccc3ccccc23)C1 (configuration not stated) | UO-31 renal | growth | 26.9 |

Read the next record carefully.
Entry CC1(c2cc3cc(Cl)ccc3oc2=O)NC(=O)c2c(/C=C/C(=O)OC3CC4CCC3(C)C4(C)C)cccc2N1 (configuration not stated) , growth reported as 42.8

----------
System: PC-3 prostate
assay_procedure: NCI-60 one-dose screen, 48 h (100 = growth as untreated, 0 = no growth, -100 = all killed)
stated_conditions: 10 µM unless noted
Compounds without any hit were thinned out: in the full panel of roughly 83,000, 20% have a hit.
# if measured growth < 60%: 1.0  # else: 0.0

| compound | answer_label |
| --- | --- |
| COc1ccc(C(=O)/C=C/c2cccc(Br)c2)cc1S(N)(=O)=O | 1.0 |
| CC1[C@H]2[C@H](C[C@H]3[C@@H]4CC=C5c6sc(Nc7ccccc7F)nc6CC[C@]5(C)[C@H]4CC[C@@]32C)O[C@]12CC[C@@H](C)CO2 (some centres undefined) | 1.0 |
| O=c1[nH]c2ccccc2cc1CSc1cccc(Nc2nccc(-c3ccc4ccccc4c3)n2)c1 | 0.0 |
| CN1C(=O)/C(=C/c2ccc(C(=O)Nc3ncc(Cc4ccc(Cl)cc4Cl)s3)cc2)SC1=S | 1.0 |
| CCOC(=O)C1=C(N)N(c2ccccc2)C2=C(C(=O)CC(C)(C)C2)C1c1ccc(N2CCOCC2)cc1 (centres undefined) | 0.0 |
| COc1cc2c(c(OC)c1OC)C(=O)CC(c1cccc(NC(=O)c3cc(NC(=O)[C@@H](N)CO)ccc3C)c1)O2 (some centres undefined) | 0.0 |

Now consider a different compound.
Data request: # TODO verify growth < 60% strictly for this compound: C=C1CC[C@@H]2[C@]3(C)COC(c4cn[nH]c4-c4cccc(Cl)c4)O[C@@H]3CC[C@@]2(C)[C@@H]1C/C=C1/C(=O)OCC1O (some centres undefined)
Data returned: 1.0

----------
Test system: KM12 colon
assay_procedure: NCI-60 one-dose screen, 48 h
stated_conditions: 10 µM unless noted
This is part of a sample that, as a whole, favours compounds with a hit. Of some 83,000 tested, about 20% had one in any assay. Calls of active or inactive are those of the source. The calls were made as follows: active = growth percent below 10; inactive = the rest.
# output must be one of YES = active, NO = inactive

Sample answers from the record:
| compound | answer_label |
| --- | --- |
| COC(=O)C[C@](O)(CCCC(C)(C)O)C(=O)O[C@H]1C(OC)=C[C@@]23CCCN2CCc2cc4c(cc2[C@@H]13)OCO4 | YES |
| O=C(/C=C/c1ccc(-c2ccccc2)cc1)c1nc2ccccc2n1Cc1ccc(F)cc1 | NO |
| COc1cc2oc(-c3cccc(C(=O)Nc4ccc(Cl)cc4)c3)cc(=O)c2c(OCC(=O)N[C@@H](Cc2ccccc2)C(=O)O)c1OC | NO |

Data request: Please share the test call associated with "O=C(N=Nc1c(O)[nH]c2ccc(Cl)cc12)c1ccc2nc(-c3ccccc3)[nH]c2c1" .
Data returned: NO

Data request: Hi team, can someone confirm the assay call for "Cc1ccc(-c2nnc3ccc(N/N=C/c4ccccc4)nn23)cc1" ?
Data returned: NO

Data request: What outcome does the record of this test show for "COc1cc2nc(SCc3ccccc3)n(-c3ccc(Cl)cc3)c(=O)c2cc1OC" ?
Data returned: NO

Data request: Hi, sorry to bother you, what did the test record for "CNS(=O)(=O)c1ccc(Nc2ccc(C(F)(F)F)cc2)c(-c2cn(C)cn2)c1" ?
Data returned: NO

Data request: Called result for "Cc1ccc(C(=O)NN2C(=O)/C(=C/C=C/c3ccc([N+](=O)[O-])o3)SC2=S)cc1"
Data returned: YES

Data request: In this assay, the call recorded for CC1(C)CC[C@]2(C(=O)O)CC[C@]3(C)C(=CCC4[C@@]5(C)C[C@@H](O)[C@@H]6OC(c7ccc(F)cc7)OC[C@@]6(C)C5CC[C@]43C)C2C1 (some centres undefined) was what?
Data returned: NO

----------
Tested on: SK-OV-3 ovarian
assay_procedure: NCI-60 one-dose screen, 48 h (100 = growth as untreated, 0 = no growth, -100 = all killed)
stated_conditions: 10 µM unless noted
Experimental: Growth inhibition of the SK-OV-3 human tumor cell line is measured as a screen for anti-cancer activity. Cells are grown in 96 well plates and exposed to the test compound for 48 hours. Compounds are tested at a single concentration, which is 10^-5 M for most compounds. The reported endpoint is percent growth (GI% or GIPRCNT), where numbers from 0 - 100% represent growth inhibition, and numbers from -100% - 0 represent cell death. For example, a value of 40 represents 60% growth inhibition. […]
The panel holds about 83,000 compounds, 20% with a hit somewhere; the sample as a whole holds those more often.
property_measured: growth (%)
Answers are plain numbers, in %.

| compound | system | unit_text | growth |
| --- | --- | --- | --- |
| COc1cc(C2CC(c3cc(OC)c(OC)c(OC)c3)=NN2C(C)=O)ccc1OCc1ccccc1 (stereo not given) | SK-OV-3 ovarian | % | 71.3 |
| COc1cc2oc(-c3cccc(NC(=O)[C@H](CC(N)=O)NC(=O)OC(C)(C)C)c3)cc(=O)c2c(OC)c1OC | SK-OV-3 ovarian | % | 140 |

Report growth for every entry below.
1. COc1ccc(-c2nnc3ccc(N/N=C/c4ccc(O)cc4)nn23)cc1
2. O=C(NNc1ccccc1)n1c(=O)c2ccccc2c(=O)n1-c1ccccc1
3. CCOP(=O)(OCCCl)c1nc(-c2ccc(C)cc2)oc1NCc1ccccc1 (stereo not given)

Data returned:
1: 104; 2: 85.5; 3: 91

Hey, can you go through the list below and give me growth for every item?
1. CCC(C)(C)c1ccc(OCCCCN2CCN(c3ccncc3)CC2)cc1
2. Cn1cc(-c2cc3nc(-c4c[nH]c5ccc(Br)cc45)cc(N)n3n2)c2ccccc21
3. O=c1[nH]n(C(=S)N/N=C/c2ccccc2Cl)c(=O)c2ccccc12
4. Cc1cc(=O)oc2cc(OCCCCOc3ccc(/C=C/C(=O)Nc4ccccc4N)cc3)ccc12
5. Cc1cc(N=C2NC(=O)CS2)n[nH]1

Data returned:
1. 32.3
2. -66.5
3. 23.4
4. 92.1
5. 121
